test.system: recombinant human EGFR exon 19 deletion/C797S double mutant protein (Homo sapiens (Human), UniProt P00533, C797S/DEL746-750)
Sequence (P00533 other isoform, or with tags, fused parts or gaps C797S/del 1-668/del 746-750 limits assumed): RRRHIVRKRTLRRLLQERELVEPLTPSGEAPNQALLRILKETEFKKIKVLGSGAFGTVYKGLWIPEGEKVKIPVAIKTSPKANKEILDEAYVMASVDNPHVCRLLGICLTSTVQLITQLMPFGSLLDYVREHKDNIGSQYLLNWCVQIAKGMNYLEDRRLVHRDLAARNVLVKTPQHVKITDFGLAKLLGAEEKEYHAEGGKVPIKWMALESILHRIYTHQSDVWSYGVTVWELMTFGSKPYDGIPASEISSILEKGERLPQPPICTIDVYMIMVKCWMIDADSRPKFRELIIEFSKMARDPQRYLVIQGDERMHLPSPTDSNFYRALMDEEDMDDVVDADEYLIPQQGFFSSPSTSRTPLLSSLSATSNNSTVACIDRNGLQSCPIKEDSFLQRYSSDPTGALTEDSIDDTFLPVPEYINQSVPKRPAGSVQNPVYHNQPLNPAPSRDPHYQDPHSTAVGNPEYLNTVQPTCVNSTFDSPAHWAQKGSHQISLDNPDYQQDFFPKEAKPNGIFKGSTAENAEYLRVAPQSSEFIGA
protocol.text: Biological Activity Assay C: biochemical assay against EGFR exon 19 deletion/C797S protein (EGFR d19/CS)
Description: In Row A of a 384-well polypropylene plate, was added 48 μL of DMSO. In wells A1 and A24, were added 12 μL of DMSO. […] To a well in Row A were added 12 μL of each 10 mM test compound stock (100% DMSO). […] To the black low volume assay ready plates, were added 5 μL of 40 uM Phosphosens peptide sensor/4 mM ATP working solution to each well. […] The slope of each curve was constructed using Dotmatics in each well, and each IC50s was calculated using a 4-parameter fit model.
Catalogue of IC50 readings, one per entry.
Express it in pM; write the number only.

Consider the worked cases shown below.
molecule	assay.endpoint	measured.number
O=S1(=O)CC[C@H](Cn2cc(-c3ncnc4oc(-c5ccccc5)cc34)c(-c3ccc(F)cc3)n2)C1 (single isomer, unassigned)	IC50	620
CS(=O)(=O)N1CC[C@@H](n2cc(-c3ncnc4oc(-c5ccccc5)cc34)c(-c3ccc(F)cc3)n2)C1 (single isomer, unassigned)	IC50	270

Please examine the following record next.
Incoming: Entry CNC(=O)c1ccccc1-c1cc2c(-c3cn(C4CS(=O)(=O)C4)nc3-c3ccc(F)cc3)ncnc2o1 has what IC50?
Outgoing: 670
